# credit: the supplement of paper PMC11061612

System: U251 (Low Grade Glioma)
Procedure Summary: Bliss excess, mean over the matrix (fraction); higher = more synergy
Measured Parameter: Bliss excess
// no unit string in output, number only

[
  {
    "Compound": "NC1(C(=O)N[C@@H](CCO)c2ccc(Cl)cc2)CCN(c2ncnc3[nH]ccc23)CC1 [Capivasertib] + CC(C)n1c(=O)n(C)c2cnc3cc(F)c(-c4ccc(OCCCN5CCCCC5)nc4)cc3c21 [AZD1390] (first compound max 10 µM, 7x7, partner max 0.3 µM)",
    "Quantitative Readout": -0.0549
  }
]

QUERY: Query: Bliss excess; subject: CC1(C)CCC(CN2CCN(c3ccc(C(=O)NS(=O)(=O)c4ccc(NCC5CCOCC5)c([N+](=O)[O-])c4)c(Oc4cnc5[nH]ccc5c4)c3)CC2)=C(c2ccc(Cl)cc2)C1 [Venetoclax] + Cn1cnc2c(F)c(Nc3ccc(Br)cc3Cl)c(C(=O)NOCCO)cc21 [Selumetinib] (first compound max 1 µM, 7x7, partner max 3 µM)
RESULT: -0.0521

---

Tested on: WM-115 (Melanoma)
Procedure Summary: combination Emax (second highest fraction inhibited in the dose matrix, 72 h); higher = more inhibition; extreme values may be limits of the assay
We begin with a simple list: items and their reported combination Emax.
Lab note: jot down the number only; don't add units.

[
  {
    "Compound": "Cc1c2c(nn1C)CSCc1cc(n(C)n1)CSc1cc(c3ccccc3c1)OCCCc1c(C(=O)O)n(C)c3c-2c(Cl)ccc13 [AZD5991] + Cc1cc2ncnn2cc1Nc1ncc2c(n1)n(C1CCOCC1)c(=O)n2C [AZD7648] (first compound max 1 µM, 7x7, partner max 10 µM)",
    "Measured On": "WM-115 (Melanoma)",
    "Quantitative Readout": 0.357
  }
]

QUERY: What value of combination Emax has been reported for the following compound? O=C(c1cc(Cc2n[nH]c(=O)c3ccccc23)ccc1F)N1CCN(C(=O)C2CC2)CC1 [Olaparib] + COc1nnc2ccc(N3CCC(c4ccc(OCCN5CCN(C)C(=O)[C@H]5C)cc4)CC3)nn12 [AZD5153] (first compound max 10 µM, 7x7, partner max 1 µM)
RESULT: 0.295

QUERY: combination Emax for Cn1cnc2c(F)c(Nc3ccc(Br)cc3Cl)c(C(=O)NOCCO)cc21 [Selumetinib] + CC(C)n1c(=O)n(C)c2cnc3cc(F)c(-c4ccc(OCCCN5CCCCC5)nc4)cc3c21 [AZD1390] (first compound max 10 µM, 7x7, partner max 0.3 µM) ?
RESULT: 0.411

---

Quick reference: combination Emax of the listed items.
System: NCI-H1792 (Lung Adenocarcinoma)
Procedure Summary: combination Emax (second highest fraction inhibited in the dose matrix, 72 h); higher = more inhibition; extreme values may be limits of the assay

QUERY: Data request, read-out combination Emax, for N#Cc1cnc(Nc2cc(NC[C@H]3CNCCO3)c(C(F)(F)F)cn2)cn1 [SRA737] + CCc1c2c(nc3ccc(O)cc13)-c1cc3c(c(=O)n1C2)COC(=O)[C@]3(O)CC [SN-38] (first compound max 10 µM, 7x7, partner max 0.3 µM)
RESULT: 0.889

QUERY: # combination Emax lookup, item CC1(C)CCC(CN2CCN(c3ccc(C(=O)NS(=O)(=O)c4ccc(NCC5CCOCC5)c([N+](=O)[O-])c4)c(Oc4cnc5[nH]ccc5c4)c3)CC2)=C(c2ccc(Cl)cc2)C1 [Venetoclax] + C=CCn1c(=O)c2cnc(Nc3ccc(N4CCN(C)CC4)cc3)nc2n1-c1cccc(C(C)(C)O)n1 [AZD1775] (first compound max 1 µM, partner max 1 µM)
RESULT: 0.828

---

The entries below are paired with their reported Bliss excess.
Test system: KARPAS-45 (T-Lymphoblastic Leukemia)
Procedure Summary: Bliss excess, mean over the matrix (fraction); higher = more synergy
Provide a numeric answer; units are not to be included.

Observe how each entry below is paired with its result.
[
  {
    "Compound": "CN(C)CCCOc1ccc(-c2ccc3ncc4c(c3c2)n(C2CCOCC2)c(=O)n4C)cn1 [AZD0156] + C[C@@H]1COCCN1C2=NC(=NC(=C2)C3(CC3)[S@](=N)(=O)C)C4=C5C=CNC5=NC=C4 [AZD6738] (first compound max 1 µM, 7x7, partner max 10 µM)",
    "Bliss excess": 0.0333
  },
  {
    "Compound": "Cc1c2c(nn1C)CSCc1cc(n(C)n1)CSc1cc(c3ccccc3c1)OCCCc1c(C(=O)O)n(C)c3c-2c(Cl)ccc13 [AZD5991] + CN(C)CCCOc1ccc(-c2ccc3ncc4c(c3c2)n(C2CCOCC2)c(=O)n4C)cn1 [AZD0156] (first compound max 1 µM, 7x7, partner max 1 µM)",
    "Bliss excess": -0.0403
  },
  {
    "Compound": "Cn1cnc2c(F)c(Nc3ccc(Br)cc3Cl)c(C(=O)NOCCO)cc21 [Selumetinib] + C[C@@H]1COCCN1C2=NC(=NC(=C2)C3(CC3)[S@](=N)(=O)C)C4=C5C=CNC5=NC=C4 [AZD6738] (first compound max 10 µM, 7x7, partner max 10 µM)",
    "Bliss excess": 0.0047
  }
]

Now for the compound whose Bliss excess we want.
QUERY: Bench note: what Bliss excess did Cc1cc2ncnn2cc1Nc1ncc2c(n1)n(C1CCOCC1)c(=O)n2C [AZD7648] + C[C@@H]1COCCN1C2=NC(=NC(=C2)C3(CC3)[S@](=N)(=O)C)C4=C5C=CNC5=NC=C4 [AZD6738] (first compound max 10 µM, 7x7, partner max 10 µM) show?
RESULT: 0.0129

---

Entries and their combination Emax values follow.
Tested on: BL-41 (Burkitt's Lymphoma)
Procedure Summary: combination Emax (second highest fraction inhibited in the dose matrix, 72 h); higher = more inhibition; extreme values may be limits of the assay
API doc: respond with a numeric literal and nothing else, no unit.

[
  {
    "Compound": "C=CCn1c(=O)c2cnc(Nc3ccc(N4CCN(C)CC4)cc3)nc2n1-c1cccc(C(C)(C)O)n1 [AZD1775] + Nc1ccn([C@@H]2O[C@H](CO)[C@@H](O)C2(F)F)c(=O)n1 [Gemcitabine] (first compound max 1 µM, partner max 0.3 µM)",
    "combination Emax": 1
  },
  {
    "Compound": "CC1(C)CCC(CN2CCN(c3ccc(C(=O)NS(=O)(=O)c4ccc(NCC5CCOCC5)c([N+](=O)[O-])c4)c(Oc4cnc5[nH]ccc5c4)c3)CC2)=C(c2ccc(Cl)cc2)C1 [Venetoclax] + C[C@@H](Nc1cc(F)cc(F)c1)c1cc(C(=O)N(C)C)cc2c(=O)cc(N3CCOCC3)oc12 [AZD8186] (first compound max 1 µM, 7x7, partner max 3 µM)",
    "combination Emax": 0.257
  },
  {
    "Compound": "Cc1c2c(nn1C)CSCc1cc(n(C)n1)CSc1cc(c3ccccc3c1)OCCCc1c(C(=O)O)n(C)c3c-2c(Cl)ccc13 [AZD5991] + Cn1cnc2c(F)c(Nc3ccc(Br)cc3Cl)c(C(=O)NOCCO)cc21 [Selumetinib] (first compound max 1 µM, 7x7, partner max 3 µM)",
    "combination Emax": 1
  },
  {
    "Compound": "CN(C)CCCOc1ccc(-c2ccc3ncc4c(c3c2)n(C2CCOCC2)c(=O)n4C)cn1 [AZD0156] + C=CCn1c(=O)c2cnc(Nc3ccc(N4CCN(C)CC4)cc3)nc2n1-c1cccc(C(C)(C)O)n1 [AZD1775] (first compound max 1 µM, partner max 1 µM)",
    "combination Emax": 1
  },
  {
    "Compound": "Cc1c2c(nn1C)CSCc1cc(n(C)n1)CSc1cc(c3ccccc3c1)OCCCc1c(C(=O)O)n(C)c3c-2c(Cl)ccc13 [AZD5991] + C=CCn1c(=O)c2cnc(Nc3ccc(N4CCN(C)CC4)cc3)nc2n1-c1cccc(C(C)(C)O)n1 [AZD1775] (first compound max 1 µM, partner max 1 µM)",
    "combination Emax": 1
  }
]

QUERY: // lookup combination Emax for CC1(C)CCC(CN2CCN(c3ccc(C(=O)NS(=O)(=O)c4ccc(NCC5CCOCC5)c([N+](=O)[O-])c4)c(Oc4cnc5[nH]ccc5c4)c3)CC2)=C(c2ccc(Cl)cc2)C1 [Venetoclax] + CCN(CCO)CCCOc1ccc2c(Nc3cc(CC(=O)Nc4cccc(F)c4)[nH]n3)ncnc2c1 [AZD2811] (first compound max 1 µM, 7x7, partner max 1 µM)
RESULT: 0.604

QUERY: Item C[C@@H](Nc1cc(F)cc(F)c1)c1cc(C(=O)N(C)C)cc2c(=O)cc(N3CCOCC3)oc12 [AZD8186] + C1CN(CCC1(C(=O)N[C@@H](CCO)C2=CC=C(C=C2)Cl)N)C3=NC=NC4=C3C=CN4 [AZD5363] (first compound max 10 µM, 7x7, partner max 10 µM) has what recorded combination Emax?
RESULT: 0.276

---

Measured Bliss excess accompanies every entry in the list below.
Test system: CHP-212 (Neuroblastoma)
Procedure Summary: Bliss excess, mean over the matrix (fraction); higher = more synergy
// return just the number, without any unit appended

See these solved cases before continuing.
[
  {
    "Compound": "COc1nnc2ccc(N3CCC(c4ccc(OCCN5CCN(C)C(=O)[C@H]5C)cc4)CC3)nn12 [AZD5153] + Cn1cnc2c(F)c(Nc3ccc(Br)cc3Cl)c(C(=O)NOCCO)cc21 [Selumetinib] (first compound max 1 µM, 7x7, partner max 10 µM)",
    "Bliss excess": -0.0285
  },
  {
    "Compound": "Cc1c2c(nn1C)CSCc1cc(n(C)n1)CSc1cc(c3ccccc3c1)OCCCc1c(C(=O)O)n(C)c3c-2c(Cl)ccc13 [AZD5991] + Cc1cc2ncnn2cc1Nc1ncc2c(n1)n(C1CCOCC1)c(=O)n2C [AZD7648] (first compound max 1 µM, 7x7, partner max 10 µM)",
    "Bliss excess": 0.0203
  },
  {
    "Compound": "Cc1cc2ncnn2cc1Nc1ncc2c(n1)n(C1CCOCC1)c(=O)n2C [AZD7648] + C[C@@H]1COCCN1C2=NC(=NC(=C2)C3(CC3)[S@](=N)(=O)C)C4=C5C=CNC5=NC=C4 [AZD6738] (first compound max 10 µM, 7x7, partner max 10 µM)",
    "Bliss excess": -0.0035
  },
  {
    "Compound": "Cc1c2c(nn1C)CSCc1cc(n(C)n1)CSc1cc(c3ccccc3c1)OCCCc1c(C(=O)O)n(C)c3c-2c(Cl)ccc13 [AZD5991] + CN(C)CCCOc1ccc(-c2ccc3ncc4c(c3c2)n(C2CCOCC2)c(=O)n4C)cn1 [AZD0156] (first compound max 1 µM, 7x7, partner max 1 µM)",
    "Bliss excess": -0.0538
  },
  {
    "Compound": "CN(C)CCCOc1ccc(-c2ccc3ncc4c(c3c2)n(C2CCOCC2)c(=O)n4C)cn1 [AZD0156] + O=C(c1cc(Cc2n[nH]c(=O)c3ccccc23)ccc1F)N1CCN(C(=O)C2CC2)CC1 [Olaparib] (first compound max 3 µM, partner max 3 µM)",
    "Bliss excess": 0.222
  },
  {
    "Compound": "COc1cc2ncnc(Nc3ccc(F)c(Cl)c3)c2cc1OCCCN1CCOCC1 [Gefitinib] + CC(C)n1c(=O)n(C)c2cnc3cc(F)c(-c4ccc(OCCCN5CCCCC5)nc4)cc3c21 [AZD1390] (first compound max 10 µM, 7x7, partner max 0.3 µM)",
    "Bliss excess": -0.0352
  },
  {
    "Compound": "CC(=O)Nc1cccc(-n2c(=O)n(C3CC3)c(=O)c3c(Nc4ccc(I)cc4F)n(C)c(=O)c(C)c32)c1 [Trametinib] + Cc1nc(-c2cn3c(n2)-c2ccc(-c4cnn(C(C)(C)C(N)=O)c4)cc2OCC3)n(C(C)C)n1 [Taselisib] (first compound max 1 µM, 7x7, partner max 10 µM)",
    "Bliss excess": 0.0363
  },
  {
    "Compound": "NC1(C(=O)N[C@@H](CCO)c2ccc(Cl)cc2)CCN(c2ncnc3[nH]ccc23)CC1 [Capivasertib] + Cn1cnc2c(F)c(Nc3ccc(Br)cc3Cl)c(C(=O)NOCCO)cc21 [Selumetinib] (first compound max 10 µM, 7x7, partner max 10 µM)",
    "Bliss excess": -0.0277
  },
  {
    "Compound": "C[C@@H](c1ccc2nccn2c1)n1nnc2ncc(-c3cnn(C)c3)nc21 [Savolitinib] + CN(CC[C@H](CSC1=CC=CC=C1)NC2=C(C=C(C=C2)S(=O)(=O)NC(=O)C3=CC=C(C=C3)N4CCC(CC4)[C@H](C5=CC=CC=C5C6=CC=C(C=C6)Cl)O)S(=O)(=O)C(F)(F)F)CCO [AZD4320] (first compound max 1 µM, 7x7, partner max 1 µM)",
    "Bliss excess": -0.0613
  },
  {
    "Compound": "CCN(CCO)CCCOc1ccc2c(Nc3cc(CC(=O)Nc4cccc(F)c4)[nH]n3)ncnc2c1 [AZD2811] + O=C(c1cc(Cc2n[nH]c(=O)c3ccccc23)ccc1F)N1CCN(C(=O)C2CC2)CC1 [Olaparib] (first compound max 1 µM, 7x7, partner max 10 µM)",
    "Bliss excess": -0.0249
  }
]

QUERY: Need Bliss excess of COc1nnc2ccc(N3CCC(c4ccc(OCCN5CCN(C)C(=O)[C@H]5C)cc4)CC3)nn12 [AZD5153] + C[C@@H]1COCCN1C2=NC(=NC(=C2)C3(CC3)[S@](=N)(=O)C)C4=C5C=CNC5=NC=C4 [AZD6738] (first compound max 1 µM, 7x7, partner max 10 µM) , thanks.
RESULT: -0.0197

QUERY: Which Bliss excess reading was recorded for the compound CN(CCO)CC[C@H](CSc1ccccc1)Nc1ccc(S(=O)(=O)NC(=O)c2ccc(N3CCC([C@@H](O)c4ccccc4-c4ccc(Cl)cc4)CC3)cc2)cc1S(=O)(=O)C(F)(F)F [AZD4320] + C[C@@H](Nc1cc(F)cc(F)c1)c1cc(C(=O)N(C)C)cc2c(=O)cc(N3CCOCC3)oc12 [AZD8186] (first compound max 1 µM, 7x7, partner max 3 µM) ?
RESULT: -0.072

QUERY: # lookup: Bliss excess of COc1cccc2c1C(=O)c1c(O)c3c(c(O)c1C2=O)C[C@@](O)(C(=O)CO)C[C@@H]3O[C@H]1C[C@H](N)[C@H](O)[C@H](C)O1 [Doxorubicin] + Cc1cc2ncnn2cc1Nc1ncc2c(n1)n(C1CCOCC1)c(=O)n2C [AZD7648] (first compound max 1 µM, 7x7, partner max 10 µM)
RESULT: 0.0611
